Reference source for all entries: patent US20150086555A1

// values below are reported Trimeric HA Binding: RLU
target: recombinant soluble homotrimeric HA of A/common magpie/Hong Kong/5052/07 (H5N1) (Influenza A virus A/common magpie/Hong Kong/5052/2007(H5N1)); test: HA microarray, BCC supernatant; settings: remark: other sources report otherwise
Report the value in RLU with no unit label.

binder	reported.measurement
TCN-538 (3206_O17) (antibody, V domains shown) VH: QITLKESGPTLVKPTQTLTLTCVFSGFSLSITGVRVGWIRQPPGKALEWLALISWDDEKHYSPSLQSRLTITKDTSKNQVVLTMTNLDPVDTATYYCARSTDRGHVLRYFGWMLPGDAFDVWGQGTMVTVSS VL: DIVMTQSPDFLPVSLGERATINCKSSQRVLYSSNNKNYLAWYQLKPGQPPKLIIYWASTRESGVPDRFSGSGSGTEFTLTISSLQAEDVAVYYCQQYYSRPYTFGQGTKLEIK	18700
TCN-552 (5249_I23) (antibody, V domains shown) VH: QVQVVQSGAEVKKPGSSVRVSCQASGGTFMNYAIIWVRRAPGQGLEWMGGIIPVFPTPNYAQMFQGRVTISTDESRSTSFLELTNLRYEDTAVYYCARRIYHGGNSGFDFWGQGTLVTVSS VL: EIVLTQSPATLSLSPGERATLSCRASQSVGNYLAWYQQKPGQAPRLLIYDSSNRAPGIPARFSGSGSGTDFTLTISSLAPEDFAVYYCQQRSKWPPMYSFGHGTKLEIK	42200
TCN-563 (5237_B21) (antibody, V domains shown) VH: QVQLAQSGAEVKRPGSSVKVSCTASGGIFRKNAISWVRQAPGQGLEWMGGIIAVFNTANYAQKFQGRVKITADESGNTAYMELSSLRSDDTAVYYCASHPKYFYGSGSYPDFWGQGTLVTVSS VL: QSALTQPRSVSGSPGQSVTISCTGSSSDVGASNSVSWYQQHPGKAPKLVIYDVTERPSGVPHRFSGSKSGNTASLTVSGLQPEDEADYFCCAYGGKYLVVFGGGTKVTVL	27500

For the next question, use this binder.
Q: Any idea what Trimeric HA Binding: RLU was measured for TCN-535 (5246_P19) (antibody, V domains shown) VH: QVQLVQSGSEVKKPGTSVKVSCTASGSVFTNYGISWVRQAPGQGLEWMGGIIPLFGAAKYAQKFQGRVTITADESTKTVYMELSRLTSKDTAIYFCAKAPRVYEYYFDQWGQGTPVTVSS VL: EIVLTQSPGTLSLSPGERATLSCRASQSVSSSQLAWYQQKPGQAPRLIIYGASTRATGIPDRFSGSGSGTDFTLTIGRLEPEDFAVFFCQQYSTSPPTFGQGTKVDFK ?
Ans: 45900
